Where these numbers come from: the supplement of paper PMC13380429

System: A549-ACE2
protocol_summary: drug-induced phospholipidosis relative to tamoxifen; higher = more phospholipidosis
assay_context: 6.66667 µM; 72 h
Is drug-induced phospholipidosis at least 80%? Then true (1). If not, false (0).

Query: Does drug-induced phospholipidosis meet or surpass 80% for `O=c1oc(-c2ccc(C(F)(F)F)cc2)nn1Cc1cc(Cl)ccc1O` ?
Result: false (0)

Query: Could you do the same for Cn1c(NC[C@@H](N)Cc2ccccc2)nc(-c2ccncc2)c(-c2ccc3ccccc3c2)c1=O [AMG-548] , please?
Result: false (0)

Query: Could you do the same for O=[N+]([O-])/C=C/c1ccc2c(c1)OCO2 [3,4-methylenedioxy-beta-nitrostyrene] , please?
Result: false (0)

Query: Could you do the same for `Nc1ccc(C(=O)Nc2cccc(-c3nc(N4CCOCC4)c4oc5ncccc5c4n3)c2)cn1` , please?
Result: true (1)

Query: Could you do the same for Cc1[nH]cnc1-c1ccc(Cl)cc1 [lofemizole] , please?
Result: false (0)

====

Recorded measurements of cell viability, one per entry
Tested on: U2OS
protocol_summary: cell viability relative to DMSO; higher = less toxic
assay_context: 72 h; 1 nM
Give the number; % is assumed, so skip it.

Consider the reported cell viability for these compounds:
{"compound": "CC(=O)OCC(=O)[C@@]12OC(C)(C)O[C@@H]1C[C@H]1[C@@H]3C[C@H](F)C4=CC(=O)C=C[C@]4(C)[C@@]3(F)[C@@H](O)C[C@@]12C [fluocinonide]", "units_label": "%", "cell viability": 98.5}
{"compound": "CCC(CC)CC1(C(=O)Nc2ccccc2SC(=O)C(C)C)CCCCC1", "units_label": "%", "cell viability": 96.9}
{"compound": "Clc1cccc(Cl)c1NC1=NCCN1", "units_label": "%", "cell viability": 103}
{"compound": "O=C(O)CSCC(=O)NC1CCSC1=O (stereo unspecified)", "units_label": "%", "cell viability": 100}
{"compound": "Cc1nn(C)c2c1C(c1cccc(Cl)c1)=NCCN2", "units_label": "%", "cell viability": 95.6}
{"compound": "Cc1ncc(C)n2nc([C@@H]3C[C@H]3c3nc4c5cccnc5ccn4c3C)nc12", "units_label": "%", "cell viability": 98.6}
{"compound": "Cc1cc(O)c(C(=O)N[C@@H](C(=O)N[C@@H]2C(=O)N3C(C(=O)O)=C(CSc4nnnn4C)CS[C@H]23)c2ccc(O)cc2)cn1 [cefpiramide]", "units_label": "%", "cell viability": 93.4}
{"compound": "CCCCOc1c(C(=O)c2c(F)cc(C)cc2F)c[nH]c2nncc1-2", "units_label": "%", "cell viability": 98}
{"compound": "CC(C)(N)c1nc(-c2ccc(OC(F)(F)F)cc2)c[nH]1", "units_label": "%", "cell viability": 98.2}
{"compound": "O=C(O)C1=C(CSc2nnnn2CS(=O)(=O)O)CS[C@@H]2[C@H](NC(=O)[C@H](O)c3ccccc3)C(=O)N12 [Cefonicid (sodium)]", "units_label": "%", "cell viability": 95.1}

Now examine the next entry.
Query: Looking for the measured cell viability of CC(O)CN1CCN(CC(=O)[O-])CCN(CC(=O)[O-])CCN(CC(=O)[O-])CC1.[Gd+3] (stereo unspecified) , can you help?
Result: 93.2

====

System: Caco-2
protocol_summary: cell viability relative to DMSO; higher = less toxic
assay_context: 72 h; 10 nM
quantity_name: cell viability (%)
Give the number; % is assumed, so skip it.

Consider the reported cell viability for these compounds:
{"compound": "CC(C)NCC(O)COc1cccc2ccccc12 (centres undefined) [propranolol]", "units_label": "%", "cell viability": 96}
{"compound": "CCCCOc1c(C(=O)c2c(F)cc(C)cc2F)c[nH]c2nncc1-2", "units_label": "%", "cell viability": 102}
{"compound": "CC(C)C1=C2[C@H]3CC[C@@H]4[C@@]5(C)CC[C@H](OC(=O)CC(C)(C)C(=O)O)C(C)(C)[C@@H]5CC[C@@]4(C)[C@]3(C)CC[C@@]2([C@@H](O)CN(CCN(C)C)Cc2ccc(Cl)cc2)CC1=O", "units_label": "%", "cell viability": 98.7}
{"compound": "O=C(O)[C@H]1CC[C@H](c2cc3cccnc3c(-c3cccc(F)c3)n2)CC1", "units_label": "%", "cell viability": 103}

Query: Looking for the measured cell viability of CN1CCCN=C1/C=C/c1cccs1 [pyrantel-pamoate] , can you help?
Result: 94.8

Query: Could you do the same for CC(C)Oc1ccc(-c2cnc3c(-c4ccnc5ccccc45)cnn3c2)cc1 [DMH1] , please?
Result: 93.7

Query: Could you do the same for CN1CCC(=C2c3ccccc3Sc3ccccc32)CC1 [pimethixene] , please?
Result: 89.7

Query: Could you do the same for Nc1ccn([C@H]2CO[C@@H](CO)S2)c(=O)n1 [apricitabine] , please?
Result: 91.7

Query: Could you do the same for O=C1CN2Cc3c(ccc(Cl)c3Cl)N=C2N1 [anagrelide] , please?
Result: 97.8
